The following compounds are shown together with reported Intracellular GSH levels, % compared to control values.
# Tested on: A549 cells
# PROTOCOL_DETAILS: Intracellular GSH levels by HPLC-EC in A549 cells
# Assay type: cell-based, human
# CONDITION_CONTEXT: A549, 25 μM, 4 h
API: value field is a number in %; no unit string.

- COMPOUND: "COc1ccc(-c2coc3cc(O)cc(O)c3c2=O)cc1 [Biochanin A]"
  ASSAYED_TARGET: "A549 cells"
  VALUE_OBSERVED: 36.8
- COMPOUND: "O=c1c(O)c(-c2ccc(O)cc2)oc2cc(O)cc(O)c12 [Kaempferol, 3,5,7,4′quadrahydroxyflavone]"
  ASSAYED_TARGET: "A549 cells"
  VALUE_OBSERVED: 29.6
- COMPOUND: "O=c1cc(-c2ccc(O)cc2)oc2cc(O)cc(O)c12 [Apigenin]"
  ASSAYED_TARGET: "A549 cells"
  VALUE_OBSERVED: 17.1

Please look up its Intracellular GSH levels, % compared to control: O=c1c(-c2ccc(O)cc2)coc2cc(O)cc(O)c12 [Genistein]
34.8

Proceed to O=c1c(O)c(-c2ccc(O)c(O)c2)oc2cc(O)cc(O)c12 [Quercetin]
51.0

----------
# System: epithelial cells
# PROTOCOL_DETAILS: Effects of compounds on extracellular GSH transport (Table 3)
# Assay type: cell-based
# CONDITION_CONTEXT: Epithelial cell; 50 μM; read-out: % Increase Over Control (extracellular GSH)
Measured activation at 50 µM accompanies every entry in the list below.
Kindly provide the numeric value in % only, without the unit symbol.

- COMPOUND: "O=C(O)c1cc(S(=O)(=O)O)ccc1O"
  DISPLAY_UNIT: "%"
  activation at 50 µM: 142
- COMPOUND: "C[C@@H]1C[C@H]2[C@@H]3CCC4=CC(=O)C=C[C@]4(C)[C@@]3(F)[C@@H](O)C[C@]2(C)[C@@]1(O)C(=O)CO [Dexamethasone, reference compound]"
  DISPLAY_UNIT: "%"
  activation at 50 µM: 178
- COMPOUND: "O=C(O)c1cc(/N=N/c2ccc(S(=O)(=O)Nc3ccccn3)cc2)ccc1O [Sulfasalazine, reference compound]"
  DISPLAY_UNIT: "%"
  activation at 50 µM: 211

Look at this compound and give its reported activation at 50 µM. CCCOC(=O)c1cc(O)c(O)c(O)c1 [Propyl Gallate]
136

----------
# Tested on: epithelial cells
# PROTOCOL_DETAILS: Effects of compounds on extracellular GSH transport (Table 3)
# Type: cell-based
# CONDITION_CONTEXT: Epithelial cell; 100 μM; read-out: % Increase Over Control (extracellular GSH)
Label Criterion met when activation at 100 µM >= 200%; otherwise Criterion not met.

- COMPOUND: "Nc1ccc(C(=O)O)c(O)c1 [p-Aminosalicylic Acid, 4-amino-2-hydroxybenzoic acid, reference compound]"
  ASSAYED_TARGET: "epithelial cells"
  LABEL: "Criterion met"
- COMPOUND: "COc1ccccc1C(=O)O"
  ASSAYED_TARGET: "epithelial cells"
  LABEL: "Criterion not met"

Hi, just wondering whether COc1ccc([C@@H]2Sc3ccccc3N(CCN(C)C)C(=O)[C@@H]2OC(C)=O)cc1 [Diltiazem, reference compound] shows activation at 100 µM of 200% or higher.
Criterion not met

Moving on to the next compound: COc1ccc2c(c1)c(CC(=O)O)c(C)n2C(=O)c1ccc(Cl)cc1 [Indomethacin, reference compound]
Criterion met

Entry `COc1ccc2cc3[n+](cc2c1OC)CCc1cc2c(cc1-3)OCO2` please
Criterion not met
